B1: VH:VL chains; a variant is named by its letters at X, in order (parent)
chain 1: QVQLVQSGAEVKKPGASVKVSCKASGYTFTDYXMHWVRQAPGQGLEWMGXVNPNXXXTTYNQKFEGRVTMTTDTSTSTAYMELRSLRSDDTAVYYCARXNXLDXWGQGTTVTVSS
chain 2: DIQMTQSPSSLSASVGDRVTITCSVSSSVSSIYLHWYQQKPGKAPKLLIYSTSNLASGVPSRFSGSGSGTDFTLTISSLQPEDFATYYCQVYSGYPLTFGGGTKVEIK

- Variants of: B1
- ASSAY_DETAILS: yeast display scFab, FACS + sequencing
- SETUP_CONDITIONS: with MET
The other results are listed elsewhere or left out. No count for the full screen is at hand.

[
  {
    "VARIANT_SPEC": "YRRRGSGA",
    "antigen binding call": "binds"
  },
  {
    "VARIANT_SPEC": "FRTRGAVV",
    "antigen binding call": "binds"
  },
  {
    "VARIANT_SPEC": "SKGRSSWS",
    "antigen binding call": "no binding"
  },
  {
    "VARIANT_SPEC": "SAEKDDGS",
    "antigen binding call": "no binding"
  },
  {
    "VARIANT_SPEC": "STAESSSF",
    "antigen binding call": "no binding"
  },
  {
    "VARIANT_SPEC": "DREEGAVV",
    "antigen binding call": "no binding"
  },
  {
    "VARIANT_SPEC": "VEAGDDAA",
    "antigen binding call": "no binding"
  },
  {
    "VARIANT_SPEC": "VKGKSSWS",
    "antigen binding call": "no binding"
  },
  {
    "VARIANT_SPEC": "SGKKSSGV",
    "antigen binding call": "no binding"
  },
  {
    "VARIANT_SPEC": "ATKAASWV",
    "antigen binding call": "no binding"
  },
  {
    "VARIANT_SPEC": "YRRGSAWA",
    "antigen binding call": "binds"
  },
  {
    "VARIANT_SPEC": "YRAGGYGY",
    "antigen binding call": "binds"
  },
  {
    "VARIANT_SPEC": "SEARSSLV",
    "antigen binding call": "no binding"
  },
  {
    "VARIANT_SPEC": "VEAGDSWV",
    "antigen binding call": "no binding"
  },
  {
    "VARIANT_SPEC": "VKGRGSWS",
    "antigen binding call": "binds"
  },
  {
    "VARIANT_SPEC": "VTEEGSSV",
    "antigen binding call": "no binding"
  },
  {
    "VARIANT_SPEC": "YRARGYVY",
    "antigen binding call": "no binding"
  },
  {
    "VARIANT_SPEC": "VRAEGSSV",
    "antigen binding call": "binds"
  },
  {
    "VARIANT_SPEC": "VRAGDDGV",
    "antigen binding call": "no binding"
  },
  {
    "VARIANT_SPEC": "DKRKGVSD chain 1 S88F",
    "antigen binding call": "no binding"
  },
  {
    "VARIANT_SPEC": "SKERGDVV",
    "antigen binding call": "no binding"
  },
  {
    "VARIANT_SPEC": "DEARSDGA",
    "antigen binding call": "no binding"
  },
  {
    "VARIANT_SPEC": "YEKEDYLA chain 1 G108D",
    "antigen binding call": "no binding"
  },
  {
    "VARIANT_SPEC": "SEEEGDAV",
    "antigen binding call": "no binding"
  },
  {
    "VARIANT_SPEC": "FRERGAVV",
    "antigen binding call": "binds"
  }
]
